FYI, the data here is from ChEMBL document CHEMBL3232764.

Measured pIC50 on Histone deacetylase 5 (Homo sapiens, UniProt Q9UQL6) follows.
Sequence (Q9UQL6 whole entry): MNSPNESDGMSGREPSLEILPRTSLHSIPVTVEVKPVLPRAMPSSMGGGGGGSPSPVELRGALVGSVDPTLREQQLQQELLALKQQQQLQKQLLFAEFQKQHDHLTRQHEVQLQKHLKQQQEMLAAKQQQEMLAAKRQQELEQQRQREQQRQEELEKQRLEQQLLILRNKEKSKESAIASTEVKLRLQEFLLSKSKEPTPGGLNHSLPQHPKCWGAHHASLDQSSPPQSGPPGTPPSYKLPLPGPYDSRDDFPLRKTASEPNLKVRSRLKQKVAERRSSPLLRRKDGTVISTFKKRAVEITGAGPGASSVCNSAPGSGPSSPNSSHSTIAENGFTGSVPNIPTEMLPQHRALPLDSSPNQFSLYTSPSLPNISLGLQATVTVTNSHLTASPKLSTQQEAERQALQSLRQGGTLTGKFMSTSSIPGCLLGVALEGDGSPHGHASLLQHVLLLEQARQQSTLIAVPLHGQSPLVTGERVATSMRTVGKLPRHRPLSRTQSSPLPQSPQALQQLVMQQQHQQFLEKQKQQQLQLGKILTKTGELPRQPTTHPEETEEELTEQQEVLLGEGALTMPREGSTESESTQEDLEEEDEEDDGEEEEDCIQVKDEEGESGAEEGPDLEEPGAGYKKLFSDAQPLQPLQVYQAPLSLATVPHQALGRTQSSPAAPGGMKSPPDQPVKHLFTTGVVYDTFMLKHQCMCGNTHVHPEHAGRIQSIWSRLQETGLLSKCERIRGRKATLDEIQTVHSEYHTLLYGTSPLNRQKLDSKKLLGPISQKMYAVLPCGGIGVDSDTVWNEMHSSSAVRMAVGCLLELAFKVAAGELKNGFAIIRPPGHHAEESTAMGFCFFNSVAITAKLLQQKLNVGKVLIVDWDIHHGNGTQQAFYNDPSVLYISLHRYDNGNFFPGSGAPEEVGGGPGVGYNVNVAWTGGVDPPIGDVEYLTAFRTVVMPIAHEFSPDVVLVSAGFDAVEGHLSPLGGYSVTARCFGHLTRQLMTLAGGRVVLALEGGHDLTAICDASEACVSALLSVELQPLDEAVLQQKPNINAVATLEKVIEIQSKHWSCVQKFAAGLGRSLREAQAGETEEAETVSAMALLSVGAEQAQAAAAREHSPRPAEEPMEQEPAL
In simple prose, pIC50 is minus the logarithm base ten of a concentration in moles per litre.

{"Query smiles": "COc1ccc(-c2ccc(/C=C/C(=O)NO)cc2)cc1", "pIC50": 4.53}
{"Query smiles": "O=C(/C=C/c1ccc(-c2ccc(O)cc2)cc1)NO", "pIC50": 4.95}

Report pIC50 from Histone deacetylase 5 (Homo sapiens, UniProt Q9UQL6) testing of O=C(/C=C/c1ccc(-c2ccc(O)c(C34CC5CC(CC(C5)C3)C4)c2)cc1)NO
4.11

====

Measured IC50 on UniProt P56524 follows.
Sequence (P56524 whole entry): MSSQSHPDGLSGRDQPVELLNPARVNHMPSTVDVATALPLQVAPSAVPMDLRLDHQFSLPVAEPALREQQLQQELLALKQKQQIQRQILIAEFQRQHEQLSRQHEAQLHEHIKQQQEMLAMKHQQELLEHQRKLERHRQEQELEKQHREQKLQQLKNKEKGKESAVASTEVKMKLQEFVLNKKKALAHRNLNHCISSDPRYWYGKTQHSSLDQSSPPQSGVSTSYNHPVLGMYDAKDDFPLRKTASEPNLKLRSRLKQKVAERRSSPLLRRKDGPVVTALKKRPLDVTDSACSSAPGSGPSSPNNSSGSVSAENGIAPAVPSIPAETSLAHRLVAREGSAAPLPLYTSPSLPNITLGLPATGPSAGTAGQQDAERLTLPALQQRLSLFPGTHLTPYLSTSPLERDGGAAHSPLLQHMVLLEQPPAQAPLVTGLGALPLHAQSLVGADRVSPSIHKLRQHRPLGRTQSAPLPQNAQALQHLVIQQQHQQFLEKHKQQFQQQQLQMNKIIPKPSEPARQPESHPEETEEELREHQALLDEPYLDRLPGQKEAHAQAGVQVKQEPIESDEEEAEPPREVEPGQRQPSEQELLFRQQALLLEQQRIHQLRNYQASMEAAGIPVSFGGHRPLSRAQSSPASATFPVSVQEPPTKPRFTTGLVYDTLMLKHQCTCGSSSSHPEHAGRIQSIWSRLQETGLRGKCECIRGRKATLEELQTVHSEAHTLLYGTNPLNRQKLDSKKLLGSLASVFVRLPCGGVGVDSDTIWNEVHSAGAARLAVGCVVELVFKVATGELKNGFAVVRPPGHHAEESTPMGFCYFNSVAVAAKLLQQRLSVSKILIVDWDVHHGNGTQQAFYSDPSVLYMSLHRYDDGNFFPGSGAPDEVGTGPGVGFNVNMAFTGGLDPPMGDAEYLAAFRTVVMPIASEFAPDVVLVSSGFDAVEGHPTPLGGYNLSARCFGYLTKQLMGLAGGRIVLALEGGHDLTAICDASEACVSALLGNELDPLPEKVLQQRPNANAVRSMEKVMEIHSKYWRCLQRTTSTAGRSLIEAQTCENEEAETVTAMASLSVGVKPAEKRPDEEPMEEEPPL

These solved cases illustrate the format of a correct answer.
{"Query smiles": "COc1ccc(-c2ccc(/C=C/C=C/C(=O)NO)cc2)cc1", "Endpoint value": "> 100 µM"}
{"Query smiles": "COc1ccc(-c2ccc(/C=C/C=C/C(=O)NO)cc2)cc1C12CC3CC(CC(C3)C1)C2", "Endpoint value": "> 100 µM"}

Return the recorded IC50 value; entry: O=C(/C=C/c1ccc(-c2ccc(O)c(C34CC5CC(CC(C5)C3)C4)c2)cc1)NO
61.4 µM
